Sourced from PubChem BioAssay (NCI)

- Tested on: NCI-H522 lung
- experiment-summary: NCI tumour cell line growth inhibition, 48 h
measured-endpoint: TGI (µM)

1) O=P1(Cc2ccccc2)N(Cc2ccccc2)[C@@H]2CCCC[C@H]2N1Cc1ccccc1: 14.4
2) COc1ccc(CNc2nc(NC3CCCCC3)nc(NC3CCCCC3)n2)cc1: 28.8
3) CCCCCCCCCCCCCCCCCCC1=C(O)C(=O)C=C(OC)C1=O: 82.2
4) NCCCN(CCCN)CCc1cn(C(=O)c2ccccc2)cn1: 64.9
5) C1=NC(N(Cc2ccccc2)Cc2ccccc2)N(Cc2ccccc2)N1 (stereo not given): 40.9
6) Cc1n[n+](Cc2ccccc2)c2sc(N)nn12: 76.2
7) CS(=O)(=O)N1CC(CCl)c2ccc(O)cc21 (stereo not given): 5.8

====

- Tested on: LOX IMVI melanoma
- experiment-summary: NCI tumour cell line growth inhibition, 48 h; in the data active = GI50 below about 0.43 µM; inactive = the rest
Outcomes: 1 (active), 0 (inactive)

1) C=C(C)[C@@H]1CC[C@]2(C)[C@H](CC[C@@H]3[C@@H]([C@@](C)(O)CCC=C(C)C)CC[C@]32C)[C@@]1(C)CCC(=O)O: 0
2) CNCCn1c(=O)c2cc(OC)c(OC)cc2c2cnc3cc4c(cc3c21)OCO4: 1
3) NCCCn1c2c(c3ccccc3c1=O)C(=O)c1ccccc1-2: 1
4) Cc1ccc2[c](c1)[Sn]([c]1ccccc1)([c]1ccccc1)[c]1cc(C)ccc1N2C: 0
5) Oc1ccc(N=Nc2nccs2)c(O)c1: 0
6) COc1cc2c3c(n(CCCN(C)CCO)c(=O)c2cc1OC)-c1cc2c(cc1C3=O)OCO2: 0
7) Cc1sc2c(c1C)C(c1ccc(Cl)cc1)=N[C@@H](CC(=O)Nc1ccc(OCCOCCOCCOCCNc3cccc4c3C(=O)N(C3CCC(=O)NC3=O)C4=O)cc1)c1nnc(C)n1-2 (stereo not given in full): 1
8) Clc1nc(Cl)c2ncn(Cc3ccccc3Cn3cnc4c(Cl)nc(Cl)nc43)c2n1: 0
9) c1ccc2c(c1)c1ccccc1c1ccccc21: 0
10) Oc1ccc(Oc2cnc3ccccc3n2)cc1: 0
11) O=C1c2ccccc2C(=O)c2c(NCCN=Cc3ccccc3O)cccc21: 0
12) O=C(N[C@@H](Cc1coc2ccccc12)B(O)O)[C@@H]1C[C@H]2CC[C@@H]1O2: 0
13) O=C(Nc1ccc(Cl)cc1)Nc1nccs1: 0
14) NCCN.O=C([O-])[O-].O=C([O-])[O-].[Co+3].[K+]: 0
15) COc1cc2c3c(n(CCCN(CCO)CCO)c(=O)c2cc1OC)-c1cc2c(cc1C3=O)OCO2: 1

====

Below, each entry is listed with its recorded TGI.
- System: UO-31 renal
- experiment-summary: NCI tumour cell line growth inhibition, 48 h
measured-endpoint: TGI

1) C=C1C(=O)OC2C1CC(OC(C)=O)/C(C)=C/CCC1(C)OC21 (stereo unspecified): > 100 µM
2) O=C(Nc1ccc(Cl)cc1)Nc1nccs1: > 100 µM
3) N#CC(C#N)=C1CCCOc2c1ccc1ccccc21: > 100 µM
4) NCCCn1c2c(c3ccccc3c1=O)C(=O)c1ccccc1-2: 16.5 µM
5) COc1ccc(N2C(=O)C(=O)N(c3ccc(N=Nc4ccccc4)cc3)C2=S)cc1: 30.3 µM
6) COc1ccc(-c2noc(N)c2-c2cc(OC)c3c(c2)OCO3)cc1: > 100 µM
7) COc1ccc(-c2ccc(NNC(=O)c3ccc(F)cc3)nn2)cc1OC: > 100 µM
8) O=C1CC2CCN(C(=O)c3ccccc3)CC2CCN1 (stereo unspecified): > 100 µM
9) C=C1CC[C@H]2C(=O)OC(c3ccoc3)C[C@]2(C)C/C=C\C=C/1C(=O)OC (stereo partly specified): > 25 µM
10) Cc1cn2c(/C=N/N=C(N)N)c(-c3ccc(Cl)c([N+](=O)[O-])c3)nc2s1: 3.4 µM
11) O=c1[nH]c2nc3ccccc3c(=O)n2/c1=C/c1cccs1: > 100 µM
